# Test system: 282377-053-R-J1-PDC complex spheroid viability;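 also: spheroids exposed to compounds for seven days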
# procedureDetails: Anticancer human tumor 282377-053-R-J1-PDC patient-derived colon adenocarcinoma cell line growth inhibition [POLQ]
# experimentalParameters: second compound 0.0316 µM; first compound 0.316 µM; active compounds read low
Label condition met when viability, T/C < 80%; otherwise condition not met.

compound	cat
C#Cc1c(F)ccc2cc(O)cc(-c3ncc4c(N5CC6CCC(C5)N6)nc(OCC56CCCN5CC(F)C6)nc4c3F)c12 (stereo not given) + Cc1cccc(N(C)C(=O)C2C(O)CCN2c2nc(C)cc(C(F)(F)F)c2C#N)c1	condition met
COc1cccc(OCCCN)c1-c1cc(Nc2cnc(C#N)cn2)n[nH]1 + COC1C(OC(N)=O)C(O)C(Oc2ccc3c(O)c(NC(=O)c4ccc(O)c(CC=C(C)C)c4)c(=O)oc3c2C)OC1(C)C	condition met

Threshold test, viability, T/C < 80%: COc1cc2cc(C(=O)CCC(=O)O)sc2cc1OC + Cc1cccc(N(C)C(=O)C2C(O)CCN2c2nc(C)cc(C(F)(F)F)c2C#N)c1
condition not met

Just wondering, is viability, T/C of CC1COCCN1c1cc(-c2ccnn2C)c2ccnc(-c3ccn[nH]3)c2n1 (stereo not given) + Nc1ccc(C#CCN(C(=O)Cc2ncc(C(F)(F)F)cc2C(F)(F)F)c2ccc(F)cc2)nn1 below 80%?
condition met

Please let me know if CCc1cc2c(N3CCc4c(cc(Cn5ccnc5)cc4-c4cn(C)nc4C(F)(F)F)C3=O)cc(C)nc2c(OC)n1 + Cc1cccc(N(C)C(=O)C2C(O)CCN2c2nc(C)cc(C(F)(F)F)c2C#N)c1 shows viability, T/C below 80%.
condition not met

Please let me know if CCc1c2c(nc3ccc(O)cc13)-c1cc3c(c(=O)n1C2)COC(=O)[C@]3(O)CC + COC1C(OC(N)=O)C(O)C(Oc2ccc3c(O)c(NC(=O)c4ccc(O)c(CC=C(C)C)c4)c(=O)oc3c2C)OC1(C)C shows viability, T/C below 80%.
condition met

Regarding COc1cccc2c1C(=O)c1c(O)c3c(c(O)c1C2=O)CC(O)(C(=O)CO)CC3OC1CC(N)C(O)C(C)O1 (stereo not given) + Cc1cccc(N(C)C(=O)C2C(O)CCN2c2nc(C)cc(C(F)(F)F)c2C#N)c1 , kindly confirm whether its viability, T/C is beneath 80%.
condition met

Find out if reported viability, T/C for CCc1cc2c(N3CCc4c(cc(Cn5ccnc5)cc4-c4cn(C)nc4C(F)(F)F)C3=O)cc(C)nc2c(OC)n1 + COC1C(OC(N)=O)C(O)C(Oc2ccc3c(O)c(NC(=O)c4ccc(O)c(CC=C(C)C)c4)c(=O)oc3c2C)OC1(C)C is less than 80%
condition not met

State whether 80% exceeds viability, T/C recorded for Nc1ccn(C2OC(CO)C(O)C2(F)F)c(=O)n1 (stereo not given) + COC1C(OC(N)=O)C(O)C(Oc2ccc3c(O)c(NC(=O)c4ccc(O)c(CC=C(C)C)c4)c(=O)oc3c2C)OC1(C)C .
condition met

Confirm or reject: viability, T/C of O=C(c1cc(Cc2n[nH]c(=O)c3ccccc23)ccc1F)N1CCN(C(=O)C2CC2)CC1 + COC1C(OC(N)=O)C(O)C(Oc2ccc3c(O)c(NC(=O)c4ccc(O)c(CC=C(C)C)c4)c(=O)oc3c2C)OC1(C)C lies strictly below 80%
condition not met

Cited source: PubChem BioAssay AID1963852
